# key: entry, value: Enzyme degradation CDK9 (% remaining) @ 0.1 μM
biological target: CDK9 (Homo sapiens, UniProt P50750); construct: endogenous in cells; host or cells: MDA-MB-231; assay: CDK protein degradation activity (Western blotting), CDK9; format: cell-based; conditions: MDA-MB-231 cells, 0.1 μM, 16 hours, Western blot
Sequence (P50750 whole entry): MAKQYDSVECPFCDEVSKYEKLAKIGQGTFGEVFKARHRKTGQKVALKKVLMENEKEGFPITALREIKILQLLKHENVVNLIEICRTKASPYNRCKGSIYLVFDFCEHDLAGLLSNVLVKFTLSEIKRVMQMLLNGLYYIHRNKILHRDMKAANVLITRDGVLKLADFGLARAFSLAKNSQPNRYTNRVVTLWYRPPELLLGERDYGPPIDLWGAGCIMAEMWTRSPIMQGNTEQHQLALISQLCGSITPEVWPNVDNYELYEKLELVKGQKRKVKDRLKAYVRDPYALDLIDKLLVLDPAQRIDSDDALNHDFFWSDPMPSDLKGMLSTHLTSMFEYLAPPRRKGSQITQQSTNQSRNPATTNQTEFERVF
parameter_measured: Enzyme degradation CDK9 (% remaining) @ 0.1 μM

molecule	assay_value
O=C1CC[C@H](N2C(=O)c3cc(F)c(N4CCC(CCN5CCN(c6ccc(Nc7ncnc8c7ncn8C7CC(NC(=O)Cc8ccccc8)C7)cc6)CC5)CC4)cc3C2=O)C(=O)N1 (stereo partly shown) [Compound 323]	0/0/0%
O=C1CC[C@H](N2C(=O)c3ccc(NCC(=O)N4CCC5(CC4)CC(N4CCC(c6ccc(Nc7ncnc8c7ncn8[C@H]7C[C@@H](NC(=O)Cc8ccccc8)C7)cc6)CC4)C5)cc3C2=O)C(=O)N1 (racemic) [Compound 296]	0/0/0%
O=C1CCC(N2C(=O)c3cccc(N4CCC(OCCN5CCN(c6ccc(Nc7ncnc8c7ncn8[C@H]7C[C@@H](NC(=O)Cc8ccccc8)C7)cc6)CC5)CC4)c3C2=O)C(=O)N1 (stereo partly shown) [Compound 260]	60/60/60%
N#Cc1cccc(C(=O)N[C@H]2C[C@@H](n3cnc4c(Nc5ccc(N6CCN(CC7CCN(c8ccc9c(c8)CN(C8CCC(=O)NC8=O)C9=O)CC7)CC6)cc5)ncnc43)C2)n1 (stereo partly shown) [Compound 441]	10/10/10%
O=C1CC[C@H](N2C(=O)c3cccc(OCC(=O)N4CCC(CN5CCN(c6ccc(Nc7ncnc8c7ncn8[C@H]7C[C@@H](NC(=O)c8c(Cl)cccc8Cl)C7)cc6)CC5)CC4)c3C2=O)C(=O)N1 [Compound 163]	0/0/0%
Cc1cccc(C(=O)NC2CC(n3cnc4c(Nc5ccc(N6CCN(CC7CCN(C(=O)C8CCN(c9cc%10c(cc9F)C(=O)N([C@H]9CCC(=O)NC9=O)C%10=O)CC8)CC7)CC6)cc5C)ncnc43)C2)n1 (stereo partly shown) [Compound 477]	30/30/30%
O=C1CCC(N2C(=O)c3cc(F)c(N4CCC(C(=O)N5CCC(CCN6CCN(c7ccc(Nc8ncnc9c8ncn9[C@H]8C[C@@H](NC(=O)c9c(Cl)cccc9Cl)C8)cc7)CC6)CC5)CC4)cc3C2=O)C(=O)N1 (stereo partly shown) [Compound 463]	0/0/0%

----------
Target: CDK9 (Homo sapiens, UniProt P50750)
Construct: endogenous in cells; host or cells: MDA-MB-231
Test: CDK protein degradation activity (Western blotting), CDK9
Assay type: cell-based
Conditions: MDA-MB-231 cells, 10 μM, 16 hours, Western blot
Experimental: In order to evaluate the CDK protein degradation activity of the compounds according to the present invention, the following experiment was conducted. MDA-MB-231 cells were seeded at 5×10^5 cells per well in a 6-well plate. The next day, the compounds were treated in each well to achieve final concentrations of 100 nM, 1 μM, and 10 μM. […] Cell lysates were quantified and separated by size using sodium dodecyl sulfate-polyacrylamide gel electrophoresis (SDS-PAGE). […]
Listed compounds paired with reported Enzyme degradation CDK9 (% remaining) @ 10 μM
parameter_measured: Enzyme degradation CDK9 (% remaining) @ 10 μM

compound	assay_value
Cc1cccc(C(=O)NC2CC(n3cnc4c(Nc5ccc(N6CCN(CCC7CCN(C(=O)C8CCN(c9cc%10c(cc9F)C(=O)N([C@H]9CCC(=O)NC9=O)C%10=O)CC8)CC7)CC6)cc5)ncnc43)C2)n1 (stereo partly drawn)	10/10/10%
O=C1CC[C@H](N2C(=O)c3cccc(NCC(=O)N4CCC(CN5CCN(c6ccc(Nc7ncnc8c7ncn8[C@H]7C[C@@H](NC(=O)c8c(Cl)cccc8Cl)C7)cc6)CC5)CC4)c3C2=O)C(=O)N1	0/0/0%
O=C1CC[C@H](N2C(=O)c3cccc(NCC(=O)N4CCC(CN5CCN(c6ccc(Nc7ncnc8c7ncn8C7CC(NC(=O)c8cccc(F)n8)C7)cc6)CC5)CC4)c3C2=O)C(=O)N1 (stereo partly drawn)	0/0/0%

----------
biological target: CDK2 (Homo sapiens, UniProt P24941); construct: endogenous in cells; host or cells: MDA-MB-231; assay: CDK protein degradation activity (Western blotting), CDK2; format: cell-based; conditions: MDA-MB-231 cells, 1 μM, 16 hours, Western blot
parameter_measured: Enzyme degradation CDK2 (% remaining) @ 1 μM

compound	target_entity	assay_value
O=C1CC[C@H](N2C(=O)c3ccc(NCC(=O)N4CCC(CN5CCN(c6ccc(Nc7ncnc8c7ncn8C7CC(NC(=O)c8c(Cl)cccc8Cl)C7)cc6)CC5)CC4)cc3C2=O)C(=O)N1 (some centres unmarked)	CDK2 (Homo sapiens, UniProt P24941)	30/30/30%
O=C1CCC(n2nnc3ccc(N4CCC(CCN5CCN(c6ccc(Nc7ncnc8c7ncn8[C@H]7C[C@@H](NC(=O)c8c(Cl)cccc8Cl)C7)cc6)CC5)CC4)cc3c2=O)C(=O)N1 (some centres unmarked)	CDK2 (Homo sapiens, UniProt P24941)	60/60/60%
O=C1CC[C@H](N2C(=O)c3ccc(N4CCC(CN5CCN(c6ccc(Nc7ncnc8c7ncn8[C@H]7C[C@@H](NC(=O)c8cccc(F)n8)C7)cc6)CC5)CC4)cc3C2=O)C(=O)N1	CDK2 (Homo sapiens, UniProt P24941)	20/20/20%
O=C1CC[C@H](N2C(=O)c3cccc(NCC(=O)N4CCC5(CC4)CC(N4CCN(c6ccc(Nc7ncnc8c7ncn8[C@H]7C[C@@H](NC(=O)Cc8ccccc8)C7)cc6)CC4)C5)c3C2=O)C(=O)N1	CDK2 (Homo sapiens, UniProt P24941)	20/20/20%
O=C1CCC(N2C(=O)c3cccc(NCC(=O)N4CCC5(CC4)CC(N4CCC(c6ccc(Nc7ncnc8c7ncn8[C@H]7C[C@@H](NC(=O)Cc8ccccc8)C7)cc6)CC4)C5)c3C2=O)C(=O)N1 (some centres unmarked)	CDK2 (Homo sapiens, UniProt P24941)	10/10/10%
O=C1CC[C@@H](c2ccc(OCC(=O)N3CCC4(CC3)CC(N3CCN(c5ccc(Nc6ncnc7c6ncn7[C@H]6C[C@@H](NC(=O)c7cccc(C(F)(F)F)n7)C6)cc5)CC3)C4)cc2)C(=O)N1	CDK2 (Homo sapiens, UniProt P24941)	50/50/50%
O=C1CCC(N2C(=O)c3ccc(NCC(=O)N4CCC(CN5CCC(CNc6ncnc7c6ncn7[C@H]6C[C@@H](NC(=O)Cc7ccccc7)C6)CC5)CC4)cc3C2=O)C(=O)N1 (some centres unmarked)	CDK2 (Homo sapiens, UniProt P24941)	100/100/100%
Cc1cccc(C(=O)N[C@H]2C[C@@H](n3cnc4c(Nc5ccc(N6CCN(CC7CCN(C(=O)COc8cccc9c8C(=O)N(C8CCC(=O)NC8=O)C9=O)CC7)CC6)cc5)ncnc43)C2)n1 (some centres unmarked)	CDK2 (Homo sapiens, UniProt P24941)	0/0/0%
O=C1CC[C@@H](c2cccc(OCC(=O)N3CCC(CCCN4CCN(c5ccc(Nc6ncnc7c6ncn7C6CC(NC(=O)Cc7ccccc7)C6)cc5)CC4)CC3)c2)C(=O)N1 (some centres unmarked)	CDK2 (Homo sapiens, UniProt P24941)	0/0/0%
O=C1CCC(N2C(=O)c3cccc(OCC(=O)N4CCC5(CC4)CC(N4CCC(c6ccc(Nc7ncnc8c7ncn8[C@H]7C[C@@H](NC(=O)Cc8ccccc8)C7)cc6)CC4)C5)c3C2=O)C(=O)N1 (some centres unmarked)	CDK2 (Homo sapiens, UniProt P24941)	0/0/0%
O=C1CC[C@H](N2C(=O)c3ccc(N4CCC(C(=O)N5CCC6(CC5)CC(N5CCN(c7ccc(Nc8ncnc9c8ncn9[C@H]8C[C@@H](NC(=O)c9c(Cl)cccc9Cl)C8)cc7)CC5)C6)CC4)cc3C2=O)C(=O)N1	CDK2 (Homo sapiens, UniProt P24941)	30/30/30%

----------
Biological target: CDK2 (Homo sapiens)
Construct: endogenous in cells; host or cells: MDA-MB-231
Experiment: CDK protein degradation activity (Western blotting), CDK2
Type: cell-based
Details: MDA-MB-231 cells, 0.1 μM, 16 hours, Western blot
Experimental: In order to evaluate the CDK protein degradation activity of the compounds according to the present invention, the following experiment was conducted. MDA-MB-231 cells were seeded at 5×10^5 cells per well in a 6-well plate. The next day, the compounds were treated in each well to achieve final concentrations of 100 nM, 1 μM, and 10 μM. […] Cell lysates were quantified and separated by size using sodium dodecyl sulfate-polyacrylamide gel electrophoresis (SDS-PAGE). […]
Each entry below carries its recorded Enzyme degradation CDK2 (% remaining) @ 0.1 μM.
parameter_measured: Enzyme degradation CDK2 (% remaining) @ 0.1 μM

compound	assay_value
O=C1CC[C@H](N2C(=O)c3ccc(N4CCC5(CC4)CC(N4CCN(c6ccc(Nc7ncnc8c7ncn8[C@H]7C[C@@H](NC(=O)Cc8ccccc8)C7)cc6)CC4)C5)cc3C2=O)C(=O)N1	30/30/30%
Cc1cccc(C(=O)NC2CC(n3cnc4c(Nc5ccc(N6CCN(CC7CCN(C(=O)C8CCN(c9cc%10c(cc9F)C(=O)N([C@H]9CCC(=O)NC9=O)C%10=O)CC8)CC7)CC6)cc5C)ncnc43)C2)n1 (some centres unmarked)	20/20/20%
O=C1CC[C@H](N2C(=O)c3ccc(N4CCC(CCN5CCN(c6ccc(Nc7ncnc8c7ncn8[C@H]7C[C@@H](NC(=O)c8c(Cl)cccc8Cl)C7)cc6)CC5)CC4)cc3C2=O)C(=O)N1	50/50/50%
Cc1cccc(C(=O)NC2CC(n3cnc4c(Nc5ccc(N6CCN(CC7CCN(C(=O)COc8ccc([C@@H]9CCC(=O)NC9=O)cc8)CC7)CC6)cc5)ncnc43)C2)n1 (some centres unmarked)	20/20/20%
Cc1cccc(C(=O)NC2CC(n3cnc4c(Nc5ccc(N6CCN(C7CC8(CCN(C(=O)COc9ccc([C@@H]%10CCC(=O)NC%10=O)cc9)CC8)C7)CC6)cc5)ncnc43)C2)n1 (some centres unmarked)	40/40/40%
O=C1CC[C@H](N2C(=O)c3ccc(NCC(=O)N4CCC(OCCN5CCN(c6ccc(Nc7ncnc8c7ncn8[C@H]7C[C@@H](NC(=O)Cc8ccccc8)C7)cc6)CC5)CC4)cc3C2=O)C(=O)N1	50/50/50%
O=C1CCN(c2coc3cc(C(=O)N4CCC5(CC4)CC(N4CCN(c6ccc(Nc7ncnc8c7ncn8[C@H]7C[C@@H](NC(=O)Cc8ccccc8)C7)cc6)CC4)C5)ccc23)C(=O)N1	0/0/0%
O=C1CC[C@H](N2C(=O)c3cccc(NC[C@H]4CC[C@H](CN5CCN(c6ccc(Nc7ncnc8c7ncn8[C@H]7C[C@@H](NC(=O)Cc8ccccc8)C7)cc6)CC5)CC4)c3C2=O)C(=O)N1	100/100/100%
